- Test system: Blood
- assay_remarks: Reduction of LTB4 production in rat blood after 4 hrs
- Format: functional, tissue-based
recorded_metric: IC50

INSERT INTO results (cpd_smiles, result) VALUES
  ('COc1cnc(-c2ccc(Cn3c(CC(C)(C)C(=O)O)c(SC(C)(C)C)c4cc(OC[C@@H]5Cc6ccccc6N5C(C)=O)ccc43)cc2)nc1', '9 nM');

---

- assay_remarks: Bioavailability in rat at 10 mg/kg
- Format: ADME, organism-based
- assay_context: in vivo
recorded_metric: bioavailability

INSERT INTO assay_data (cpd_smiles, recorded_metric, result) VALUES
  ('CC(=O)N1c2ccccc2C[C@H]1COc1ccc2c(c1)c(SC(C)(C)C)c(CC(C)(C)C(=O)O)n2Cc1ccc(Cl)cc1', 'bioavailability', '11%'),
  ('CC(=O)N1CCC[C@H]1COc1ccc2c(c1)c(SC(C)(C)C)c(CC(C)(C)C(=O)O)n2Cc1ccc(Cl)cc1', 'bioavailability', '10%'),
  ('CC(=O)N1c2ccccc2C[C@H]1COc1ccc2c(c1)c(C(=O)C(C)(C)C)c(CC(C)(C)C(=O)[O-])n2Cc1ccc(Cl)cc1.[Na+]', 'bioavailability', '7%'),
  ('COc1cnc(-c2ccc(Cn3c(CC(C)(C)C(=O)O)c(SC(C)(C)C)c4cc(OC[C@@H]5Cc6ccccc6N5C(C)=O)ccc43)cc2)nc1', 'bioavailability', '29%');

---

- Tested on: Blood
- assay_remarks: Inhibition of LTB4 production in calcium ionophore treated A23187 human whole blood after 15 mins
- Format: functional, tissue-based
- assay_context: 0.25 h
# IC50 values compiled below
recorded_metric: IC50 (µM)

INSERT INTO assay_data (cpd_smiles, numeric_value) VALUES
  ('COc1nc(-c2ccc(Cn3c(CC(C)(C)C(=O)O)c(SC(C)(C)C)c4cc(OC[C@@H]5Cc6ccccc6N5C(C)=O)ccc43)cc2)cs1', 0.573),
  ('CC(=O)N1c2ccccc2C[C@H]1COc1ccc2c(c1)c(S(=O)(=O)C(C)(C)C)c(CC(C)(C)C(=O)O)n2Cc1ccc(Cl)cc1', 1.74),
  ('CC(=O)N1c2ccccc2C[C@H]1COc1ccc2c(c1)c(SC(C)(C)C)c(CC(C)(C)C(=O)O)n2Cc1ccc(Cl)cc1', 0.169),
  ('CC(C)(C)Sc1c(CC(C)(C)C(=O)O)n(Cc2ccc(Cl)cc2)c2ccc(OC[C@@H]3CCCN3S(C)(=O)=O)cc12', 4.3),
  ('CC(C)(C)Sc1c(CC(C)(C)C(=O)O)n(Cc2ccc(Cl)cc2)c2ccc(OC[C@@H]3CCCN3C(=O)c3ccccc3)cc12', 22.3),
  ('CC(=O)N[C@H](COc1ccc2c(c1)c(SC(C)(C)C)c(CC(C)(C)C(=O)O)n2Cc1ccc(Cl)cc1)c1ccccc1', 23.1),
  ('CC(=O)N1c2ccccc2C[C@H]1COc1ccc2c(c1)c(SC(C)(C)C)c(CC(C)(C)C(=O)O)n2Cc1ccc(-c2ccc(F)cn2)cc1', 0.235);

---

- assay_remarks: Clearance in rat at 10 mg/kg, po
- Assay type: ADME, organism-based
- Design: dose 10 mg/kg, route oral
- assay_context: in vivo
recorded_metric: CL/F

INSERT INTO results (cpd_smiles, recorded_metric, result) VALUES
  ('CC(=O)N1CCC[C@H]1COc1ccc2c(c1)c(SC(C)(C)C)c(CC(C)(C)C(=O)O)n2Cc1ccc(Cl)cc1', 'CL/F', '20 mL/min/kg'),
  ('COc1cnc(-c2ccc(Cn3c(CC(C)(C)C(=O)O)c(SC(C)(C)C)c4cc(OC[C@@H]5Cc6ccccc6N5C(C)=O)ccc43)cc2)nc1', 'CL/F', '11 mL/min/kg'),
  ('CC(=O)N1c2ccccc2C[C@H]1COc1ccc2c(c1)c(SC(C)(C)C)c(CC(C)(C)C(=O)O)n2Cc1ccc(Cl)cc1', 'CL/F', '25 mL/min/kg');

---

- system: CYP2C9 (Homo sapiens, UniProt P11712)
- Sequence (P11712 whole entry): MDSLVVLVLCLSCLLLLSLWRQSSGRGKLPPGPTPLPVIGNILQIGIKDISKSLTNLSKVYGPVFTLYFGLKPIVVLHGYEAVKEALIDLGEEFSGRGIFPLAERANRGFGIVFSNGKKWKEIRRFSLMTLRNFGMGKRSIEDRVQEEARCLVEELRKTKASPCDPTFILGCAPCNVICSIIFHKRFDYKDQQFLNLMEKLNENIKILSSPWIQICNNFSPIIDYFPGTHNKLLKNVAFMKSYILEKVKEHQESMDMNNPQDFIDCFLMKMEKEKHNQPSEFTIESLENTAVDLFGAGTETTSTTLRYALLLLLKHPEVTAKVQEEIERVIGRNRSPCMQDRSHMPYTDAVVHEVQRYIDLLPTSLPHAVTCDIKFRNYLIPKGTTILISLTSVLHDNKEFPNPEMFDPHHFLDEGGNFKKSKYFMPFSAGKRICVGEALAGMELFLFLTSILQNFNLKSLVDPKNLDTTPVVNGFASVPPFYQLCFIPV
- assay_remarks: Inhibition of CYP2C9 at 10 uM
- Assay type: ADME
# inhibition at 10 µM annotations
recorded_metric: inhibition at 10 µM (%)

INSERT INTO measurements (cpd_smiles, value_qualifier, numeric_value) VALUES
  ('CC(=O)N1c2ccccc2C[C@H]1COc1ccc2c(c1)c(SC(C)(C)C)c(CC(C)(C)C(=O)O)n2Cc1ccc(Cl)cc1', '=', 96),
  ('CC(=O)N1CCC[C@H]1COc1ccc2c(c1)c(SC(C)(C)C)c(CC(C)(C)C(=O)O)n2Cc1ccc(Cl)cc1', '=', 93),
  ('CC(=O)N1c2ccccc2C[C@H]1COc1ccc2c(c1)c(CC(C)C)c(CC(C)(C)C(=O)O)n2Cc1ccc(Cl)cc1', '>', 80),
  ('CC(=O)N1c2ccccc2C[C@H]1COc1ccc2c(c1)c(Cc1ccccc1)c(CC(C)(C)C(=O)O)n2Cc1ccc(Cl)cc1', '>', 80),
  ('CC(=O)N1c2ccccc2C[C@H]1COc1ccc2c(c1)c(CCC(C)(C)C)c(CC(C)(C)C(=O)O)n2Cc1ccc(Cl)cc1', '>', 80);

---

- assay_remarks: Inhibition of LTB4 production in calcium ionophore A23187 treated human leukocytes
- Format: functional, cell-based
- assay_context: Leukocyte
recorded_metric: IC50 (nM)

INSERT INTO assay_data (cpd_smiles, numeric_value) VALUES
  ('CC(=O)N1c2ccccc2C[C@H]1COc1ccc2c(c1)cc(CC(C)(C)C(=O)O)n2Cc1ccc(Cl)cc1', 12.9),
  ('CC(=O)N[C@H](COc1ccc2c(c1)c(SC(C)(C)C)c(CC(C)(C)C(=O)O)n2Cc1ccc(Cl)cc1)c1ccccc1', 72),
  ('CC(C)(C)Sc1c(CC(C)(C)C(=O)O)n(Cc2ccc(Cl)cc2)c2ccc(OC[C@@H]3CCCN3)cc12', 2780),
  ('CC(=O)N1c2ccccc2C[C@H]1COc1ccc2c(c1)c(CC(C)C)c(CC(C)(C)C(=O)O)n2Cc1ccc(Cl)cc1', 0.5),
  ('CC(=O)N1c2ccccc2C[C@H]1COc1ccc2c(c1)c(C(=O)c1ccccc1)c(CC(C)(C)C(=O)O)n2Cc1ccc(Cl)cc1', 263),
  ('CC(=O)N1c2ccccc2C[C@H]1COc1ccc2c(c1)c(Cc1ccccc1)c(CC(C)(C)C(=O)O)n2Cc1ccc(Cl)cc1', 1.5),
  ('CC(=O)N1c2ccccc2C[C@H]1COc1ccc2c(c1)c(CCC(C)(C)C)c(CC(C)(C)C(=O)O)n2Cc1ccc(Cl)cc1', 4.2);

---

- Test system: Blood
- assay_remarks: Inhibition of LTB4 production in calcium ionophore treated A23187 human whole blood after 15 mins
- Assay type: functional, tissue-based
- assay_context: 0.25 h
// reported IC50 for each item listed
recorded_metric: IC50 (nM)

INSERT INTO assay_data (cpd_smiles, recorded_metric, numeric_value) VALUES
  ('CC(=O)N1c2ccccc2C[C@H]1COc1ccc2c(c1)c(CC(C)C)c(CC(C)(C)C(=O)O)n2Cc1ccc(Cl)cc1', 'IC50', 200),
  ('CC(C)C(=O)N1CCC[C@H]1COc1ccc2c(c1)c(SC(C)(C)C)c(CC(C)(C)C(=O)O)n2Cc1ccc(Cl)cc1', 'IC50', 5660),
  ('CC(=O)N1CCC[C@H]1COc1ccc2c(c1)c(SC(C)(C)C)c(CC(C)(C)C(=O)O)n2Cc1ccc(Cl)cc1', 'IC50', 403),
  ('COc1cnc(-c2ccc(Cn3c(CC(C)(C)C(=O)O)c(SC(C)(C)C)c4cc(OC[C@@H]5Cc6ccccc6N5C(C)=O)ccc43)cc2)nc1', 'IC50', 154);

---

- Tested on: Blood
- assay_remarks: Inhibition of LTB4 production in calcium ionophore treated A23187 human whole blood after 15 mins
- Format: functional, tissue-based
- assay_context: 0.25 h
pIC50: −log10 of the molar value.
pIC50 for assorted molecules
recorded_metric: pIC50

INSERT INTO measurements (cpd_smiles, system, numeric_value) VALUES
  ('CC(=O)N1c2ccccc2C[C@H]1COc1ccc2c(c1)cc(CC(C)(C)C(=O)O)n2Cc1ccc(Cl)cc1', 'Blood', 4.50),
  ('CC(=O)N1c2ccccc2C[C@H]1COc1ccc2c(c1)c(CCC(C)(C)C)c(CC(C)(C)C(=O)O)n2Cc1ccc(Cl)cc1', 'Blood', 6.39),
  ('CC(C)(C)OC(=O)N1c2ccccc2C[C@@H]1COc1ccc2c(c1)c(SC(C)(C)C)c(CC(C)(C)C(=O)O)n2Cc1ccc(Cl)cc1', 'Blood', 4.91),
  ('CC(C)(C)Sc1c(CC(C)(C)C(=O)O)n(Cc2ccc(Cl)cc2)c2ccc(OCC(N)=O)cc12', 'Blood', 5.67),
  ('CC(=O)N1c2ccccc2C[C@H]1COc1ccc2c(c1)c(Cc1ccccc1)c(CC(C)(C)C(=O)O)n2Cc1ccc(Cl)cc1', 'Blood', 6.37),
  ('CC(=O)N1c2ccccc2C[C@H]1COc1ccc2c(c1)c(C(=O)c1ccccc1)c(CC(C)(C)C(=O)O)n2Cc1ccc(Cl)cc1', 'Blood', 4.20),
  ('COc1ccc(-c2ccc(Cn3c(CC(C)(C)C(=O)O)c(SC(C)(C)C)c4cc(OC[C@@H]5Cc6ccccc6N5C(C)=O)ccc43)cc2)nn1', 'Blood', 5.96);
